Let's look at some molecules and their measured change in vivo at 300 µg/mL.
system: male Std: Wistar rats; assay: Pain test by plantar thermal stimuli (plantar test); assay type: in vivo; details: Rattus norvegicus, 4 h, 50 μl of 0.03% (W/V) solution i.pl. into right hind-paw; 4 hours after administration; cut-off 25 seconds; read-out: % MPE (percent maximum possible effect, withdrawal latency)
Enter your answer as a number in %; do not include the unit.

Example entries begin here.
{"columns": ["MOLECULE", "change in vivo at 300 µg/mL / %"],
 "data": [
  ["CC/C=C/[C@H]1CC[C@H](NC(=O)Cc2ccc(O)c(OC)c2)CC1 [Example 52]", 91.5],
  ["CCCCO[C@H]1CC[C@H](NC(=O)Cc2ccc(O)c(OC)c2)CC1 [Example 35]", 42.8],
  ["CCC(C)(C)C1CCC(NC(=O)Cc2ccc(O)c(OC)c2)CC1 (stereo not drawn) [Example 4]", 56.6],
  ["COc1cc(CC(=O)N[C@H]2CC[C@H](/C=C/CC3CC3)CC2)ccc1O [Example 58]", 48.6],
  ["COc1cc(CC(=O)N[C@H]2CC[C@@H](CC=C(C)C)CC2)ccc1O [Example 47]", 69]
]}

Please report the measured change in vivo at 300 µg/mL for COc1cc(CC(=O)N[C@H]2CC[C@@H](/C=C/C3CC3)CC2)ccc1O [Example 64]
71.1

Please report the measured change in vivo at 300 µg/mL for COc1cc(CC(=O)N[C@H]2CC[C@@H](CCC3CCC3)CC2)ccc1O [Example 70]
92.6

Please report the measured change in vivo at 300 µg/mL for COc1cc(CC(=O)N[C@H]2CC[C@@H](CCCC(C)C)CC2)ccc1O [Example 69]
79.9

Please report the measured change in vivo at 300 µg/mL for COc1cc(CC(=O)N[C@H]2CC[C@H](C3CCCCCC3)CC2)ccc1O [Example 87]
80.1

Please report the measured change in vivo at 300 µg/mL for COc1cc(CC(=O)N[C@H]2CC[C@@H](CCC(C)C)CC2)ccc1O [Example 48]
79.6

Please report the measured change in vivo at 300 µg/mL for CCC(CC)=C1CCC(NC(=O)Cc2ccc(O)c(OC)c2)CC1 (stereo not drawn) [Example 77]
78.6

----------
test system: male Std: Wistar rats; assay: Pain test by plantar thermal stimuli (plantar test); format: in vivo; details: Rattus norvegicus, 4 h, 50 μl of 0.03% (W/V) solution i.pl. into right hind-paw; 4 hours after administration; cut-off 25 seconds; read-out: % MPE (percent maximum possible effect, withdrawal latency)
// label = MET if change in vivo at 300 µg/mL is not less than 50%, otherwise NOT MET

Completed entries (count: 3):
{"columns": ["COMPOUND", "LABEL_CLASS"],
 "data": [
  ["CCC[C@H]1CC[C@H](NC(=O)Cc2ccc(O)c(OC)c2)CC1", "MET"],
  ["C/C=C\\[C@H]1CC[C@@H](NC(=O)Cc2ccc(O)c(OC)c2)CC1", "NOT MET"],
  ["CCCC(CCC)=C1CCC(NC(=O)Cc2ccc(O)c(OC)c2)CC1 (stereo not shown)", "MET"]
]}

In plain terms: is recorded change in vivo at 300 µg/mL at least 50% for COc1cc(CC(=O)N[C@H]2CC[C@H](CCC(C)C)CC2)ccc1O ?
MET

In plain terms: is recorded change in vivo at 300 µg/mL at least 50% for COc1cc(CC(=O)N[C@H]2CC[C@H](/C=C/C3CC3)CC2)ccc1O ?
MET

In plain terms: is recorded change in vivo at 300 µg/mL at least 50% for C/C=C/CC[C@H]1CC[C@H](NC(=O)Cc2ccc(O)c(OC)c2)CC1 ?
MET

In plain terms: is recorded change in vivo at 300 µg/mL at least 50% for COc1cc(CC(=O)NC2CCC3(CCCCC3)CC2)ccc1O ?
MET

In plain terms: is recorded change in vivo at 300 µg/mL at least 50% for CCCC=C1CCC(NC(=O)Cc2ccc(O)c(OC)c2)CC1 (single isomer, unassigned; (+)) [Example 45] ?
MET

----------
system: male Std: Wistar rats; assay: Pain test by plantar thermal stimuli (plantar test); assay type: in vivo; settings: Rattus norvegicus, 4 h, 50 μl of 0.03% (W/V) solution i.pl. into right hind-paw; 4 hours after administration; cut-off 25 seconds; read-out: % MPE (percent maximum possible effect, withdrawal latency)
Class assignment keyed on change in vivo at 300 µg/mL, ranges low band (below 40%), middle band (40% to below 80%), high band (80% or more)

Completed entries (count: 3):
{"columns": ["COMPOUND", "TARGET_OR_TEST_SYSTEM", "LABEL_CLASS"],
 "data": [
  ["COc1cc(CC(=O)N[C@H]2CC[C@H](OCCC(C)C)CC2)ccc1O", "male Std: Wistar rats", "middle band"],
  ["CCCCCO[C@H]1CC[C@H](NC(=O)Cc2ccc(O)c(OC)c2)CC1", "male Std: Wistar rats", "middle band"],
  ["COc1cc(CC(=O)N[C@H]2CC[C@H](C=C(C)C)CC2)ccc1O", "male Std: Wistar rats", "middle band"]
]}

Pick a category. Item: CC/C=C\[C@H]1CC[C@H](NC(=O)Cc2ccc(O)c(OC)c2)CC1
high band

Pick a category. Item: C=C/C=C/[C@H]1CC[C@H](NC(=O)Cc2ccc(O)c(OC)c2)CC1
low band

Pick a category. Item: COc1cc(CC(=O)N[C@H]2CC[C@@H](/C=C/C3CCC3)CC2)ccc1O
high band

Pick a category. Item: COc1cc(CC(=O)N[C@H]2CC[C@@H](C=C(C)C)CC2)ccc1O
high band

Pick a category. Item: COc1cc(CC(=O)NC2CCCCC2)ccc1O [Comparative Example 2, reference compound]
low band

Pick a category. Item: COc1cc(CC(=O)NC2CCC(C)CC2)ccc1O (centres unmarked) [Comparative Example 1, reference compound]
low band
